System: BV2 microglial cells
Protocol Description: LPS-induced IL-1β release by BV2 microglia cell cultures (ELISA)
Type: cell-based, murine
Condition Details: Mus musculus, BV-2, read-out: CBD IC50, LPS-induced IL-1β release, Example 4; addition of 2.5 µM kaempferol
Endpoint Name: IC50

Ask: Observed IC50 on BV2 microglial cells for C=C(C)[C@@H]1CCC(C)=C[C@H]1c1c(O)cc(CCCCC)cc1O , please.
Reply: 2100 nM

* * *

Tested on: BV2 microglial cells
Protocol Description: LPS-induced TNFα secretion by BV2 microglia cell cultures (ELISA)
Type: cell-based, murine
Condition Details: Mus musculus, BV-2, read-out: IC50 for inhibiting LPS-induced TNFα release
Endpoint Name: IC50 (µM)
Kindly provide the numeric value in µM only, without the unit symbol.

# count of solved cases: 2
[[record]]
smiles_structure = "O=c1c(O)c(-c2ccc(O)c(O)c2)oc2cc(O)cc(O)c12"
experimental_result = 6.2

[[record]]
smiles_structure = "C=C(C)[C@@H]1CCC(C)=C[C@H]1c1c(O)cc(CCC)cc1O"
experimental_result = 27.9


Ask: What measured IC50 goes with C=C(C)[C@@H]1CCC(C)=C[C@H]1c1c(O)cc(CCCCC)cc1O ?
Reply: 5.3

* * *

System: BV2 microglial cells
Protocol Description: LPS-induced IL-6 release by BV2 microglia cell cultures (ELISA)
Assay type: cell-based, murine
Condition Details: Mus musculus, BV-2, Example 25 (FIG. 25E); extracts calculated on dominant cannabinoid; read-out: IC50 for IL-6 inhibition
Endpoint Name: IC50

Ask: Please give the measured IC50 for this molecule: C=C(C)[C@@H]1CCC(C)=C[C@H]1c1c(O)cc(CCCCC)cc1O
Reply: 5.9 µM

* * *

Test system: BV2 microglial cells
Protocol Description: LPS-induced IL-1β release by BV2 microglia cell cultures (ELISA)
Assay type: cell-based, murine
Condition Details: Mus musculus, BV-2; Example 4 (FIG. 5D); by itself; read-out: IC50 for inhibiting LPS-induced IL-1β release
Method: The BV2 murine microglial cell line is used in these studies. The BV2 cells are cultured at 37° C. in a humidified atmosphere with 5% CO2 in high D-glucose (4.5 g/L) Dulbecco’s modified Eagle’s medium (Sigma, Rehovot, Israel) supplemented with 5% heat-inactivated fetal bovine serum, streptomycin (100 µg/ml), and penicillin (100 units/ml) and sodium pyruvate (1 mM; all from Biological Industries Ltd., Kibbutz Beit Haemek, Israel). […]
Endpoint Name: IC50 (µM)
Give just the number in µM; leave the unit off.

Ask: Field request: IC50 | item: O=c1c(O)c(-c2ccc(O)cc2)oc2cc(O)cc(O)c12 [kaempferol]
Reply: 6.2

* * *

Test system: BV2 microglial cells
Protocol Description: LPS-induced TNFα secretion by BV2 microglia cell cultures (ELISA)
Assay type: cell-based, murine
Condition Details: Mus musculus, BV-2, read-out: CBD IC50, LPS-induced TNFα release, Example 6; addition of 10 µM CBDV
Endpoint Name: IC50
The reply should consist of the numeric value with the unit placed after it.

Ask: May I ask what IC50 has been recorded for C=C(C)[C@@H]1CCC(C)=C[C@H]1c1c(O)cc(CCCCC)cc1O [CBD, cannabidiol] ?
Reply: 2400 nM

* * *

Test system: BV2 microglial cells
Protocol Description: LPS-induced TNFα secretion by BV2 microglia cell cultures (ELISA)
Type: cell-based, murine
Condition Details: Mus musculus, BV-2, read-out: CBD IC50, LPS-induced TNFα release, Example 6; addition of 5 µM CBDV
Protocol: The BV2 murine microglial cell line is used in these studies. The BV2 cells are cultured at 37° C. in a humidified atmosphere with 5% CO2 in high D-glucose (4.5 g/L) Dulbecco’s modified Eagle’s medium (Sigma, Rehovot, Israel) supplemented with 5% heat-inactivated fetal bovine serum, streptomycin (100 µg/ml), and penicillin (100 units/ml) and sodium pyruvate (1 mM; all from Biological Industries Ltd., Kibbutz Beit Haemek, Israel). […]
Endpoint Name: IC50 (µM)
Kindly provide the numeric value in µM only, without the unit symbol.

Ask: Consider the compound C=C(C)[C@@H]1CCC(C)=C[C@H]1c1c(O)cc(CCCCC)cc1O [CBD, cannabidiol] and give its measured IC50.
Reply: 2.7
